Parameter pIC50: see the listing below.
Tested on: 422866-222-R5-J1-PDC complex spheroid viability;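 further: spheroids exposed to compounds for one week before readout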
Assay info: Anticancer human tumor 422866-222-R5-J1-PDC patient-derived pancreatic adenocarcinoma cell line growth inhibition [POLQ]
Conditions: curve of first compound; second compound 1 µM
pIC50: −log10 of the molar value.
Experimental readout: pIC50

INSERT INTO assay_data (molecule, target_or_test_system, observed_measurement) VALUES
  ('O=c1[nH]cc(F)c(=O)[nH]1 + Nc1ccc(C#CCN(C(=O)Cc2ncc(C(F)(F)F)cc2C(F)(F)F)c2ccc(F)cc2)nn1', '422866-222-R5-J1-PDC complex spheroid viability', '< 5.00'),
  ('COc1cccc2c1C(=O)c1c(O)c3c(c(O)c1C2=O)CC(O)(C(=O)CO)CC3OC1CC(N)C(O)C(C)O1 (stereo not drawn) + COC1C(OC(N)=O)C(O)C(Oc2ccc3c(O)c(NC(=O)c4ccc(O)c(CC=C(C)C)c4)c(=O)oc3c2C)OC1(C)C', '422866-222-R5-J1-PDC complex spheroid viability', 6.60),
  ('COc1cccc(OCCCN)c1-c1cc(Nc2cnc(C#N)cn2)n[nH]1 + COC1C(OC(N)=O)C(O)C(Oc2ccc3c(O)c(NC(=O)c4ccc(O)c(CC=C(C)C)c4)c(=O)oc3c2C)OC1(C)C', '422866-222-R5-J1-PDC complex spheroid viability', '> 8.50');
